# Tested on: Tyrosyl-tRNA synthetase, putative (Trypanosoma cruzi (strain CL Brener))
# Protocol details: Trypanosoma cruzi tyrosyl tRNA synthetase (TcYRS) _High Tyrosine SOP; further: in the data most compounds retested in dose-response had high values
# Type: functional
# Set-up: scale not given: direction of the effect not stated beside the values
# Particulars: 30 µM
Reported Percent Effect values for a set of compounds
Experimental endpoint: Percent Effect (%)

Compound: O=C(c1n[nH]c(=O)c2ccccc12)N1CCCCC1c1ccn[nH]1 (centres undefined)
Recorded number: 4.3
//
Compound: O=C(CCc1cc2n(n1)CCCN(C(=O)c1cccnc1)C2)NC1CC1
Recorded number: 0
//
Compound: COc1cccc(CC(=O)N2CCc3ncnc(NC(C)C)c3CC2)c1
Recorded number: 3.24
//
Compound: COCc1nc(CN2CCC3(CCCO3)CCC2=O)no1 (centres undefined)
Recorded number: 6.01
//
Compound: CCNC(=O)Nc1ccc2c(ccn2CC(=O)N(CC)CC)c1
Recorded number: 9.31
//
Compound: CC1CN(C(=O)CN(Cc2ccccc2Br)C2CC2)CCO1 (centres undefined)
Recorded number: 3.81
//
Compound: CC(C)c1ccsc1C(=O)N1CCCN(Cc2cscn2)CC1
Recorded number: 18.1
//
Compound: Cc1ccc(C(=O)N2CCn3cc(CN(C)Cc4ccco4)nc3C2)o1
Recorded number: 1.06
//
Compound: CCc1nnc2n1CCN(C(=O)c1ccc(-c3ccco3)nc1C)C2
Recorded number: 10.3
//
Compound: c1cncc(COCc2nnc3n2CCN(Cc2ccsc2)C3)c1
Recorded number: 3.23
//
Compound: CC(C)N1CC(C(=O)NCCOc2ccc3c(c2)OCO3)CC1=O (centres undefined)
Recorded number: 8.37
//
Compound: c1coc(CN2CCCC3(COCCN(Cc4c[nH]nn4)C3)C2)c1 (centres undefined)
Recorded number: 7.29
//
Compound: Cc1oc(C)c(C(=O)N2CCCN(Cc3cscn3)CC2)c1C
Recorded number: 6.67
//
Compound: CN(Cc1ccc2c(c1)OCCO2)C(=O)NCCc1cnn(C)c1
Recorded number: 2.97
//
Compound: CCn1cc(NC(=O)NCC(C)O)cn1 (centres undefined)
Recorded number: 8.37
//
Compound: NC(=O)C1CN(Cc2c[nH]cn2)CCN(C2CCOCC2)C1 (centres undefined)
Recorded number: 12.9
//
Compound: COCC(NC(=O)c1cc[nH]n1)c1cccc(C(F)(F)F)c1 (centres undefined)
Recorded number: 4.3
//
Compound: CCOc1ccc(S(=O)(=O)NCc2cccnc2N(C)C)cc1
Recorded number: 7.39
//
Compound: Cc1nc(C)n(CC2CCCN2Cc2nc(-c3cccs3)no2)n1 (centres undefined)
Recorded number: 5.39
//
Compound: COc1ccc(C2(CNC(C)c3nnc(C)o3)CCCCC2)cc1 (centres undefined)
Recorded number: 0.529
//
Compound: Cn1c(Nc2cn[nH]c2)c(C#N)c(=O)n(C)c1=O
Recorded number: -3.23
//
Compound: O=C(CNCCn1cccn1)NCC1(c2ccccc2)CC1
Recorded number: 3.81
//
Compound: O=C(COCC1CC1)N1CCCC(n2ccnc2)C1 (centres undefined)
Recorded number: 1.04
//
Compound: CC(=O)N1CCOCC2(CN(Cc3ccc(C)o3)CCO2)C1 (centres undefined)
Recorded number: 3.19

* * *

# Tested on: Ubiquitin-activating enzyme e1, putative (Leishmania donovani (strain BPK282A1))
# Protocol details: Leishmania donovani Ubiquitin Activating Enzyme (LdE1)
# Format: functional
# Parameters: scale not given: direction of the effect not stated beside the values
# Particulars: 30 µM
Entries with a potency or affinity are not part of this list.

Compound: O=C1CCC2(CCN(c3ncc(F)cn3)CC2)N1CCN1CCCC1
Percent Effect (%): 7.79
--
Compound: COc1ccc(S(=O)(=O)N2CCCC3(CCCN3S(C)(=O)=O)C2)cc1 (configuration not stated)
Percent Effect (%): 10.8
--
Compound: CCCc1nc(N2CCN(CC)CC2)c2c(n1)c(C)nn2CC
Percent Effect (%): 7.79
--
Compound: CCc1nc(C(=O)N2CCN(C)CC2C)nn1-c1ccccc1Cl (configuration not stated)
Percent Effect (%): 15.8
--
Compound: NC(=O)c1cnn2c1NCC(CNCCc1ccco1)C2 (configuration not stated)
Percent Effect (%): 2.63
--
Compound: CCc1nc(C)c(C(=O)NCCNc2ncccn2)s1
Percent Effect (%): 15.8
--
Compound: CCO[C@H]1CO[C@@]2(CCCN(Cc3nc(C)cs3)C2)C1
Percent Effect (%): 16.4
--
Compound: Cc1ccn(-c2ccc(C(=O)N3CCCC(n4ccnc4)C3)cc2)n1 (configuration not stated)
Percent Effect (%): -2.53
--
Compound: CC(C(=O)N1CCN(c2ccccc2Cl)CC1)n1cncn1 (configuration not stated)
Percent Effect (%): 11.4
--
Compound: CC(C)c1n[nH]c(C2CN(Cc3nnc(C4CC4)o3)CCO2)n1 (configuration not stated)
Percent Effect (%): 0
--
Compound: Cc1nc2cc(=O)[nH]n2c(C)c1CC(=O)Nc1ccc2ccccc2n1
Percent Effect (%): 5.26
--
Compound: COc1cccc(Cc2nnc(SC3CCOC3=O)o2)c1 (configuration not stated)
Percent Effect (%): -2.67
--
Compound: c1cnn(CCNCc2nnc(C3CC3)o2)c1
Percent Effect (%): 27.9
--
Compound: CC(C)c1ccc(OCCC(=O)N2CCC(CC(N)=O)CC2)cc1
Percent Effect (%): 5.26
--
Compound: CCn1cnnc1C1CCN(C(=O)c2cnc3ccccc3n2)CC1
Percent Effect (%): 5.26
--
Compound: CN(C)C(=O)[C@@H]1CCO[C@@H]2CCN(CCc3ccccc3)C[C@@H]21
Percent Effect (%): 10.8
--
Compound: Cc1ccc(C(=O)N2CCCC(NC(=O)C(C)C)C2)c(O)c1 (configuration not stated)
Percent Effect (%): 16.2
--
Compound: Cc1ccc(N2CC[C@H]3OCC[C@@]3(C(=O)NC(C)C)C2)nn1
Percent Effect (%): 2.7
--
Compound: CCS(=O)(=O)c1ccccc1N1CCC(NC(=O)c2ccc[nH]2)CC1
Percent Effect (%): 8.11
--
Compound: CCn1ccnc1CN1CCN(Cc2ccccn2)CC1C (configuration not stated)
Percent Effect (%): 5.41
--
Compound: O=C(CCc1cscn1)NS(=O)(=O)c1ccc2c(c1)CCC2
Percent Effect (%): 15.3
--
Compound: O=C(CCN1CCCC1C1CCCCC1)N1CCc2sccc2C1 (configuration not stated)
Percent Effect (%): -48.6
--
Compound: COc1ccccc1NC(=O)NCC(O)(c1ccccc1)C1CC1 (configuration not stated)
Percent Effect (%): 11
--
Compound: CCc1csc(C2CCCN(C(=O)c3ccc(OC)nn3)C2)n1 (configuration not stated)
Percent Effect (%): 7.79
--
Compound: CC1CN(CC(=O)Nc2nncs2)CCN1c1nccs1 (configuration not stated)
Percent Effect (%): 8.11
--
Compound: O=C(Cc1csc(-c2ccco2)n1)N1CCN(c2cnccn2)CC1
Percent Effect (%): 13.9
--
Compound: Cc1cc(CN2CCN(C(=O)C(C)C)[C@@H]3CS(=O)(=O)C[C@@H]32)ccc1F
Percent Effect (%): 6.94
--
Compound: CC1CCN(C(=O)c2ccn(COc3ccc(F)cc3)n2)CC1
Percent Effect (%): 5.2
--
Compound: Cc1nn(C)c(C)c1CC(=O)N1CCCC(n2cccn2)C1 (configuration not stated)
Percent Effect (%): -5.26
--
Compound: Cc1nc(CN2CCCN(C(=O)C3(C#N)CCCCC3)CC2)cs1
Percent Effect (%): 5.06
--
Compound: Cc1c(C2CCCN(C(=O)C3CC3)C2)n2c(nc1=O)CCC2 (configuration not stated)
Percent Effect (%): 23
--
Compound: COc1ccc(F)cc1C(C(=O)O)N1CCSCC1 (configuration not stated)
Percent Effect (%): 8.11
--
Compound: O=C([C@@H]1C[C@H]2[C@H](CCN2Cc2nccs2)O1)N1CCOCC1
Percent Effect (%): 8.11
--
Compound: CCN1CCCN(C(=O)c2cnc(OC(C)C)c(Cl)c2)CC1
Percent Effect (%): -8.22
--
Compound: CCC1=N[C@@]2(CC[C@@H]3CN(S(=O)(=O)CC(C)C)C[C@@H]32)C(=O)N1C
Percent Effect (%): 10.4
--
Compound: CC(=O)N1CCC(C(=O)c2cc(C)cnc2N)CC1
Percent Effect (%): 10.7
--
Compound: CS(=O)(=O)NCCCNC(=O)c1cccc(-n2cccc2)c1
Percent Effect (%): 15.8
--
Compound: CN(C)C(=O)N1CCc2c(nnn2C)C1COCc1ccccc1 (configuration not stated)
Percent Effect (%): 21.3
--
Compound: OCCn1cc(CN2CCN(CCOc3ccccc3F)CC2)cn1
Percent Effect (%): 0
--
Compound: Cc1cncc(C(=O)N2CCCC(C(=O)CCc3ccccc3)C2)c1 (configuration not stated)
Percent Effect (%): 2.74
--
Compound: Cc1cnc(N2CCn3cc(CNC(=O)CC4CC4)nc3C2)nc1
Percent Effect (%): -2.67
--
Compound: Cn1cc(C(=O)CC2CCCN2C(=O)c2n[nH]c3ccccc23)cn1 (configuration not stated)
Percent Effect (%): 1.27
--
Compound: CN(C)c1ccc(CCNC(=O)C2CCC(=O)N(C3CCCC3)C2)cc1 (configuration not stated)
Percent Effect (%): 8
--
Compound: CCOCCn1nc(C)cc1C(=O)N1CCN(C(C)C)C(CC)C1 (configuration not stated)
Percent Effect (%): 2.7
--
Compound: CC1CCN(Cn2nc(-c3ccc(F)cc3)oc2=O)CC1
Percent Effect (%): 18.2
--
Compound: CC(C)c1ncncc1C(=O)N1CCCN(Cc2cccs2)CC1
Percent Effect (%): 16.2
--
Compound: CNC(=O)[C@@]12CCC3(CCN(C(C)=O)CC3)[C@@H]1CN(S(C)(=O)=O)C2
Percent Effect (%): 8.11
